Test: in vitro
Details: human, hela cells, % viability
Form field: viability at 28.5 h, 10 µM (one value per entry).
Give just the number in %; leave the unit off.

Solved cases (6 shown):
# compound, viability at 28.5 h, 10 µM / %
rows = [
    ("Cc1ccc2oc(C(=O)N(CCO)CCc3ccncc3)c(C)c2c1", 106),
    ("CCOCc1c(O)ccc2c([N+](=O)[O-])c(C)n(-c3ccc(OC)cc3)c12", 87.8),
    ("Cc1ccccc1CCNC(=O)CCc1c(C)nc2nc(N)nn2c1C", 93.6),
    ("O[C@H]1[C@H](NCc2ccco2)[C@H]2CO[C@H](O2)[C@@H]1N1CCC(Cc2ccccc2)CC1", 99.1),
    ("O=[N+]([O-])c1ccc(C(O)CNC(=S)Nc2ccccc2)cc1 (stereo not drawn)", 99.8),
    ("CCC(CO)NCc1ccc(OCC(N)=O)cc1 (stereo not drawn)", 100),
]

[Q] Fill in reported viability at 28.5 h, 10 µM for this entry: NC(=O)C1CCN(C(=O)CN2CCN(Cc3ccccc3)CC2)CC1 [CBK265971C]
[A] 82.8

[Q] Fill in reported viability at 28.5 h, 10 µM for this entry: COCCN(C(=S)Nc1ccc(C)cc1Cl)C(C)c1cccnc1 (stereo not drawn)
[A] 91.1

[Q] Fill in reported viability at 28.5 h, 10 µM for this entry: O=c1cc(O)c2sc3nc(-c4ccco4)cc(C(F)(F)F)c3c2[nH]1
[A] 98.2

* * *

Experiment: in vitro
Conditions: human, hela cells, % viability
parameter: viability at 28.5 h, 10 µM (%)
Give just the number in %; leave the unit off.

# compound, test value
measured = [
    ("CN1CCCN(c2nc(-c3cccc(C(F)(F)F)c3)cn3ccnc23)CC1", 92),
    ("COc1nccnc1OC1CCN(CCc2ccc(F)cc2)CC1", 102),
    ("CC(C)[C@H]1CN(Cc2ccco2)CCN1C(=O)N1CCCCC1", 87.6),
    ("COCCCNC(=S)Nc1ccc(N2CCOCC2)c2nonc12", 88.8),
]

Lab note: next compound to report on.
[Q] Fill in reported viability at 28.5 h, 10 µM for this entry: CC(=O)Nc1cccc(C(C)NC(=O)N(C)C2CCc3ccccc32)c1 (centres unmarked)
[A] 102

* * *

Assay: in vitro
Conditions: human, hela cells, % viability
viability at 28.5 h, 10 µM strictly under 90% means y; at 90% or over means n.

# count of solved cases: 8
# compound, assigned class
data = [
    ("Cc1ccc(S(=O)(=O)N(C)CCCC(=O)n2cnc3ccccc32)cc1", "n"),
    ("CCn1cnnc1C1CCN(C(=O)c2ccc(C)c(Cl)c2)CC1", "n"),
    ("S=C(Nc1ccccc1)N1CCCCC1CN1CCCCC1 (stereo not drawn)", "n"),
    ("CCOC(=O)N1CCC(NS(=O)(=O)c2ccc3c(c2)oc(=O)n3C)CC1", "y"),
    ("CCN(CC)CCn1c2ccccc2c2nc(C)sc21 [CBK266628C]", "n"),
    ("CCOc1ccc(CN2CCN(C(=O)c3ccc(-c4ccccc4)cc3)CC2)cc1", "n"),
    ("COc1ccnc(N2CCN(Cc3nnnn3C3CC3)CC2)n1", "y"),
    ("Cn1c(N2CC[C@H](O)C2)nc2cc(C(=O)NCCn3cccc3)ccc21", "y"),
]

[Q] is_below(viability at 28.5 h, 10 µM, 90%) for CC(=O)N1CCC(NC(=O)c2cccc(C(N)=O)c2)CC1 ?
[A] n

[Q] is_below(viability at 28.5 h, 10 µM, 90%) for COc1ccc(S(=O)(=O)N(C)CC(=O)Nc2cccc(C(F)(F)F)c2)cc1OC ?
[A] n

[Q] is_below(viability at 28.5 h, 10 µM, 90%) for O=C(CCS(=O)(=O)c1ccccc1)Nc1ccccc1N1CCNCC1 [CBK028285T] ?
[A] n

[Q] is_below(viability at 28.5 h, 10 µM, 90%) for CCC(C(=O)O)N1C(=O)NC2C1N(C)C(=O)N2C (stereo not drawn) ?
[A] y

[Q] is_below(viability at 28.5 h, 10 µM, 90%) for Cc1ccc2cn[nH]c2c1 ?
[A] n

[Q] is_below(viability at 28.5 h, 10 µM, 90%) for COC1CCCC(C(=O)N2CCCC2c2nc3ccccc3[nH]2)C1 (stereo not drawn) ?
[A] n

[Q] is_below(viability at 28.5 h, 10 µM, 90%) for COc1ccc(-c2csc(Nc3cccc(C(=O)O)c3)n2)cc1 ?
[A] y

[Q] is_below(viability at 28.5 h, 10 µM, 90%) for O=c1[nH]c2c(-c3ccccc3)nnn2c2ccccc12 ?
[A] n

[Q] is_below(viability at 28.5 h, 10 µM, 90%) for Cc1nc2n(n1)CCN(C(=O)Cc1c(C)[nH]c3ccc(F)cc13)C2 ?
[A] y

[Q] is_below(viability at 28.5 h, 10 µM, 90%) for COCCNc1nc(-c2ccccc2)ccc1C(=O)Nc1cccc(OC)c1 ?
[A] n

[Q] is_below(viability at 28.5 h, 10 µM, 90%) for Cn1c2c(c3ccccc31)CCOC21CCNCC1 ?
[A] n

[Q] is_below(viability at 28.5 h, 10 µM, 90%) for C=CCN1C(=O)CC2(C1=O)C(=O)N(Cc1csc(-c3ccccc3)n1)c1ccc(Cl)cc12 (stereo not drawn) ?
[A] n

[Q] is_below(viability at 28.5 h, 10 µM, 90%) for O=C1N[C@@H]2CCN(C(=O)CCn3ccccc3=O)C[C@@H]2CCCCCOc2ccccc21 ?
[A] n

[Q] is_below(viability at 28.5 h, 10 µM, 90%) for Cc1ccccc1NC(=O)CC(C(=O)O)N1CCOCC1 (stereo not drawn) ?
[A] n

[Q] is_below(viability at 28.5 h, 10 µM, 90%) for O=C(COc1ccccc1)C(C(=O)c1ccccc1)=C1Nc2ccccc2N1 ?
[A] n

[Q] is_below(viability at 28.5 h, 10 µM, 90%) for COC(=O)c1ccccc1NC(=O)CCSc1ccc(Cl)cc1 ?
[A] n

These measurements were taken from paper PMC12040169.
